# assayed-target: T1, CFP-ARC4 (TNKS2) (human, N-terminal mCerulean fusion omitted; limits from the TNKS2 ARC4 crystal construct convention (e.g. 3TWR), as Table S1 is not shown)
# T1 chain: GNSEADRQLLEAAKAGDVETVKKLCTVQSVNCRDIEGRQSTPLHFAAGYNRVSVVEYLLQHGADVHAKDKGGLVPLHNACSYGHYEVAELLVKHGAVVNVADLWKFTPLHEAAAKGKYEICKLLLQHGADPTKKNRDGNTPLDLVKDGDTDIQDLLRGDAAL
# assay-explanation: FRET or BRET; titration for Kd after Song et al.: CFP-fusion kept constant (50 nM to 1.1 µM), YFP-fusion 0-4,000 nM; FRET emission on excitation at 430 nm; assay buffer 10 mM Bis-Tris-Propane pH 7.0, 3% PEG20,000, 0.01% Triton-X100, 0.5 mM TCEP; 384-well plates, 4 replicates; the paper calls the constants an estimation
# run-parameters: both partners purified
pKd: −log10 of the molar value.
measured-property: pKd

[
  {
    "binder": "REAGDGEE (also called TBM (REAGDGEE); YFP-fused TBM; source: E. coli BL21(DE3), purified (IMAC); not shown: mCitrine (YFP), N-terminal, kept) [YFP-TBM]",
    "measured-property": "pKd",
    "readout-number": 7.46
  }
]
